# Test system: TLR-4
# experiment: p38 MAPK phosphorylation in hPBMC challenged with LPS (Example 4)
# Format: cell-based, human
# condition parameters: 2 µg/ml LPS, peptide at 20 ng/ml
Where a SMILES comes first, the peptide text is derived from it.
result type: TLR-4 mediated signalling induced by LPS, p38 MAPK phosphorylation status

- molecule: "CC(C)C[C@H](N)C(=O)N[C@@H](CCC(N)=O)C(=O)NCC(=O)N[C@H](C(=O)O)C(C)C [LQGV] (H-LQGV-OH)"
  meas value: "initial downregulation"
- molecule: "CC(C)C[C@H](N)C(=O)N[C@@H](CCC(N)=O)C(=O)NCC(=O)O [LQG] (H-Leu-Gln-Gly-OH)"
  meas value: "initial downregulation"
- molecule: "CC(C)[C@H](NC(=O)CNC(=O)[C@H](CCC(N)=O)NC(=O)[C@H](C)N)C(=O)O [AQGV] (H-AQGV-OH)"
  meas value: "initial downregulation"
